Format: physicochemical
condition summary: aqueous phosphate buffer, pH 5, half-time (t1/2), pH 5.00, 80 °C

- query smiles: "CC(/C=C1\\SC(=S)N(CC(=O)O)C1=O)=C\\c1ccccc1"
  half-life at 150 μg/mL (h): 22.9

---

Format: physicochemical
condition summary: aqueous phosphate buffer, pH 5, half-time (t1/2), pH 5.00, 37 °C
property label: half-life at 150 μg/mL (h)

- compound: "CC(/C=C1\\SC(=S)N(CC(=O)O)C1=O)=C\\c1ccccc1 [epalrestat]"
  property label: "half-life at 150 μg/mL"
  assay value: 60.3

---

Type: physicochemical
condition summary: aqueous phosphate buffer, pH 5, half-time (t1/2), pH 5.00, 25 °C
property label: half-life at 150 μg/mL (h)

- query smiles: "CC(/C=C1\\SC(=S)N(CC(=O)O)C1=O)=C\\c1ccccc1"
  property label: "half-life at 150 μg/mL"
  assay value: 116
